molecular target: TEL-PDGFRβ fusion gene transfected cells (Ba/F3); assay: Suppression of proliferation of TEL-PDGFRβ fusion gene transfected Ba/F3 cells; settings: TEL-PDGFRβ expressing Ba/F3 cells, 72 hours, final concentration 0.1 to 10,000 nM; read-out: PDGFR β/BaF3 proliferation inhibition (IC50)
Sequence (P09619 33-1106 limits assumed, change not shown): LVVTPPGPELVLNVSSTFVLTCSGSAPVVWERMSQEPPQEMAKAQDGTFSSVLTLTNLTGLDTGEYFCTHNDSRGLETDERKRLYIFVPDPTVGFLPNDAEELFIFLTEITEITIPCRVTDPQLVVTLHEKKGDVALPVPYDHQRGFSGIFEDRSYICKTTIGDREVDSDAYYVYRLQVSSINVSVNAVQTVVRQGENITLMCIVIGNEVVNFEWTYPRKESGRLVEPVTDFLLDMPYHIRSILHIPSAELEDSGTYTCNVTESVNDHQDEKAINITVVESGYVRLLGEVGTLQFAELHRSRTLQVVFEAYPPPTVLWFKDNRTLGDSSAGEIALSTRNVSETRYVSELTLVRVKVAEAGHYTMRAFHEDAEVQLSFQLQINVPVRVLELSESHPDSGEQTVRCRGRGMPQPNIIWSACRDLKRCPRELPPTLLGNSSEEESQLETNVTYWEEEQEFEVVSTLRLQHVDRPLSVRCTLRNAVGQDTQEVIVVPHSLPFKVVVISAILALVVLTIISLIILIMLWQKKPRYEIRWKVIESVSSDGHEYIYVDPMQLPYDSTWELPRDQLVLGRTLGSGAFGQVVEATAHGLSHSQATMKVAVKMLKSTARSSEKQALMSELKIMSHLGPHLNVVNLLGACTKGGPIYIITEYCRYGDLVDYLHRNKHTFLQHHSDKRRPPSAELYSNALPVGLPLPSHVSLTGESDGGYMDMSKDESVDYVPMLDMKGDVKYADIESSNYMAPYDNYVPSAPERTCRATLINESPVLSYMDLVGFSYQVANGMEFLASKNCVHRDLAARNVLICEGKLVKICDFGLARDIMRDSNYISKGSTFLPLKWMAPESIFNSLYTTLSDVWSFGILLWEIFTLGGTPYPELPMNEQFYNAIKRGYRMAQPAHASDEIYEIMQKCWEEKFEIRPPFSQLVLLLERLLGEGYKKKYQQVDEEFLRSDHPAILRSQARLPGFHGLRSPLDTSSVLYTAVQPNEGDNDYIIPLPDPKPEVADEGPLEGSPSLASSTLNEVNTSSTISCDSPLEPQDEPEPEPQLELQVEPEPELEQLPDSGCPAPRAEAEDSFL
pIC50: −log10 of the molar value.
Parameter: pIC50

// below: answered compounds
query: Look up pIC50 for this compound: Cc1ccc(C(=O)N[C@H]2CCCC[C@@H]2O)cc1NC(=O)c1cnc(NC(C)(C)C)s1 [Example 38]
result: 8.14

query: Now the compound Cc1ccc(C(=O)N[C@H]2CCCC[C@@H]2O)cc1C#Cc1ccc(N)nc1 [Example 65]
result: 7.85

query: Ok, now Cc1ccc(C(=O)N[C@H]2CCCC[C@@H]2O)cc1NCc1cnc2ccsc2c1 [Example 108]
result: 8.64

query: Also, Cc1ccc(C(=O)N[C@H]2CCCC[C@@H]2O)cc1C#Cc1cncc(-c2cccc(F)c2)n1 [Example 70] please.
result: 8.74

query: Another compound to check: Cc1ccc(C(=O)N[C@@H](CO)[C@@H](O)c2ccccc2)cc1CNc1cncc(C2CC2)c1 [Example 154]
result: 6.64

query: Also need Cc1ccc(C(=O)N[C@H]2CCCC[C@@H]2O)cc1NC(=O)c1cncc(OCC2CC2)c1 [Example 24] , thanks.
result: 7.96

query: Can you check Cc1ccc(C(=O)N[C@H]2CCCC[C@@H]2O)cc1NCc1cnc(NC2CC2)nc1 [Example 114] next?
result: 8.57

query: Repeat with Cc1ccc(C(=O)N[C@H]2CCCC[C@@H]2O)cc1NCc1cncc(-c2ccccc2)c1 [Example 92]
result: 7.70

I: Cc1ccc(C(=O)N[C@H](CO)c2ccccc2)cc1NC(=O)c1cncc(-c2ccccc2)c1 [Example 6]
II: Cc1ccc(C(=O)N[C@H]2CCCC[C@@H]2O)cc1NC(=O)c1cncc(-c2cc(F)c(F)c(F)c2)c1 [Example 42]
III: CCCc1ncc(C(=O)Nc2cc(C(=O)N[C@H]3CCCC[C@@H]3O)ccc2C)s1 [Example 10]
IV: O=C(N[C@H]1CCCC[C@@H]1O)c1ccc(Cl)c(C#Cc2cncc(-c3ccccc3)c2)c1 [Example 58]
query: Ascending sort, pIC50. Hello, could you send the labels back in the order asked? Thank you.
result: IV, II, III, I

I: Cc1ccc(C(=O)N[C@H]2CCCC[C@@H]2O)cc1NC(=O)c1cncc(OC2CC(F)(F)C2)c1 [Example 47]
II: Cc1ccc(NC(=O)N[C@@H]2CCCC[C@@H]2O)cc1CNc1cncc(-c2ncccn2)c1 [Example 162]
query: Could you check which of I and II has a smaller value for pIC50? Please indicate the selected item by its label.
result: I
(I: 7.12, II: 8.96)

a: O=C(Nc1ccc(F)c(CNc2cncc(-c3ncccn3)c2)c1)N[C@@H]1CCCC[C@@H]1O [Example 161]
b: Cc1ccc(C(=O)N[C@H]2CCCC[C@@H]2O)cc1CCc1cncc(-c2ccccc2)c1 [Example 174]
query: // compare measured pIC50 between a and b ; output the lower one Lab note: record the label of whichever item you select.
result: b
